Where do these numbers come from? They come from paper PMC12204359.

# assay-target: T1, clathrin heavy chain minimal ankle region (CHC^ankle, aa 358–574) (human, UniProt Q00610 358-574)
# T1 construct: modified pGEX vector with a TEV-cleavable GST tag; also called CHC ankle region protein; WT CHC
# T1 sequence (looked up): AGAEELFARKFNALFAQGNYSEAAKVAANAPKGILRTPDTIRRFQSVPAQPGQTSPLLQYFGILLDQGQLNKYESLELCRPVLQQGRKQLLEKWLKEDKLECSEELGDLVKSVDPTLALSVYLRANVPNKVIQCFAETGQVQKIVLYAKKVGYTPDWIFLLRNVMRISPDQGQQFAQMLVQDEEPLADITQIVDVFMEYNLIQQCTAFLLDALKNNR
# protocol-summary: fluorescence polarisation; direct binding, FAM-labelled TACC3 peptides and CHC protein; 20 mM HEPES pH 7.5, 150 mM NaCl, 5 mM DTT, 0.05% Tween-20; triplicate; one-site specific binding model
# cond: both partners purified
Non-standard residues stand in square brackets, D forms with d. No end group written: not given here. pS = N[C@@H](COP(=O)(O)O)C(=O)O; FAM = 5(6)-carboxyfluorescein
The following binders are listed with their measured pKd values.
The scale used: pKd is minus the common logarithm of the concentration in molar units.

Below: 4 binders and their reported pKd.
• {FAM}-FKESALAKQ[pS]LYLKFDPLLRDS (peptide, UniProt Q9Y6A5 549-570, looked up, human TACC3 CID, aa 549-570, pS558, R555A; also called R555A^pTACC3; source: synthetic peptide, bought: PPR, Alta Bioscience or Biomatik Corporation) [FAM-pTACC3 CID R555A peptide] = 4.28
• {FAM}-FKESALAKQ[pS]LYLAFDPLLRDS (peptide, UniProt Q9Y6A5 549-570, looked up, human TACC3 CID, aa 549-570, pS558, R555A and K562A; also called R555A K562A^pTACC3; source: synthetic peptide, bought: PPR, Alta Bioscience or Biomatik Corporation) [FAM-pTACC3 CID R555A K562A peptide] = 4.59
• {FAM}-FKESALRKQELYLKFDPLLRDS (peptide, UniProt Q9Y6A5 549-570, looked up, human TACC3 CID, aa 549-570, S558E; also called phosphomimetic glutamic acid variant; S558E TACC3^CID; source: synthetic peptide, bought: PPR, Alta Bioscience or Biomatik Corporation) [FAM-TACC3 CID S558E peptide] = 3.50
• {FAM}-FKESALRKQ[pS]LYLAFDPLLRDS (peptide, UniProt Q9Y6A5 549-570, looked up, human TACC3 CID, aa 549-570, pS558, K562A; also called K562A^pTACC3; source: synthetic peptide, bought: PPR, Alta Bioscience or Biomatik Corporation) [FAM-pTACC3 CID K562A peptide] = 4.64

# evaluate next
Query string: May I ask what pKd has been recorded for {FAM}-FKESALRKQSLYLAFDPLLRDS (peptide, UniProt Q9Y6A5 549-570, looked up, human TACC3 CID, aa 549-570, K562A, no phosphate; also called K562A^TACC3; source: synthetic peptide, bought: PPR, Alta Bioscience or Biomatik Corporation) [FAM-TACC3 CID K562A peptide, unphosphorylated] ?
Result string: 3.84
